Target: Msh2-msh6(3MBD) (Saccharomyces cerevisiae) (UniProt P25847+Q03834)
Sequence (P25847 whole entry, chain 1 of 2): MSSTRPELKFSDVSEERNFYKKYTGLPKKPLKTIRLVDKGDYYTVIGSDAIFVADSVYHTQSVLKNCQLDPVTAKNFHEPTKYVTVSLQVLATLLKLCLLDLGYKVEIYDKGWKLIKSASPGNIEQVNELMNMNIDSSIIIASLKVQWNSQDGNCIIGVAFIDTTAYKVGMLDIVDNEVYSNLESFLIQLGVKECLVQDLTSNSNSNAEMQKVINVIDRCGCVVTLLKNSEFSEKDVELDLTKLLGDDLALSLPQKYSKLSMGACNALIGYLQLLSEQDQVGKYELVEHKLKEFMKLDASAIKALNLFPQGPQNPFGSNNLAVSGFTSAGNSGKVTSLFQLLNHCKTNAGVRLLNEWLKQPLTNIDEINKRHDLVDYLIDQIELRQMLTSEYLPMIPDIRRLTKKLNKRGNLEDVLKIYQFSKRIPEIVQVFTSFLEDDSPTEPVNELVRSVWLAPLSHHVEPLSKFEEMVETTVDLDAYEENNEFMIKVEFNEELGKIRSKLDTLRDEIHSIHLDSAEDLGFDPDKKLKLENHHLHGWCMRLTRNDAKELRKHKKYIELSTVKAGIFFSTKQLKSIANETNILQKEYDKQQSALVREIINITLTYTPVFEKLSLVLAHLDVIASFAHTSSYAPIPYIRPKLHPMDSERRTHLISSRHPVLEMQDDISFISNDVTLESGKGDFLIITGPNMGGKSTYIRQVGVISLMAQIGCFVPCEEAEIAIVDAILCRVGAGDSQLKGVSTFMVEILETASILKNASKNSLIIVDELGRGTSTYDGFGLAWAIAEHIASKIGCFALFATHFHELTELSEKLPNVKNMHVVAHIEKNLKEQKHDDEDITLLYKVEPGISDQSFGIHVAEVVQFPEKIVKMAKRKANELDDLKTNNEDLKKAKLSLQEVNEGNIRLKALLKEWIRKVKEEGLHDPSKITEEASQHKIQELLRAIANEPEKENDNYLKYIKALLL
Sequence (Q03834 whole entry, chain 2 of 2): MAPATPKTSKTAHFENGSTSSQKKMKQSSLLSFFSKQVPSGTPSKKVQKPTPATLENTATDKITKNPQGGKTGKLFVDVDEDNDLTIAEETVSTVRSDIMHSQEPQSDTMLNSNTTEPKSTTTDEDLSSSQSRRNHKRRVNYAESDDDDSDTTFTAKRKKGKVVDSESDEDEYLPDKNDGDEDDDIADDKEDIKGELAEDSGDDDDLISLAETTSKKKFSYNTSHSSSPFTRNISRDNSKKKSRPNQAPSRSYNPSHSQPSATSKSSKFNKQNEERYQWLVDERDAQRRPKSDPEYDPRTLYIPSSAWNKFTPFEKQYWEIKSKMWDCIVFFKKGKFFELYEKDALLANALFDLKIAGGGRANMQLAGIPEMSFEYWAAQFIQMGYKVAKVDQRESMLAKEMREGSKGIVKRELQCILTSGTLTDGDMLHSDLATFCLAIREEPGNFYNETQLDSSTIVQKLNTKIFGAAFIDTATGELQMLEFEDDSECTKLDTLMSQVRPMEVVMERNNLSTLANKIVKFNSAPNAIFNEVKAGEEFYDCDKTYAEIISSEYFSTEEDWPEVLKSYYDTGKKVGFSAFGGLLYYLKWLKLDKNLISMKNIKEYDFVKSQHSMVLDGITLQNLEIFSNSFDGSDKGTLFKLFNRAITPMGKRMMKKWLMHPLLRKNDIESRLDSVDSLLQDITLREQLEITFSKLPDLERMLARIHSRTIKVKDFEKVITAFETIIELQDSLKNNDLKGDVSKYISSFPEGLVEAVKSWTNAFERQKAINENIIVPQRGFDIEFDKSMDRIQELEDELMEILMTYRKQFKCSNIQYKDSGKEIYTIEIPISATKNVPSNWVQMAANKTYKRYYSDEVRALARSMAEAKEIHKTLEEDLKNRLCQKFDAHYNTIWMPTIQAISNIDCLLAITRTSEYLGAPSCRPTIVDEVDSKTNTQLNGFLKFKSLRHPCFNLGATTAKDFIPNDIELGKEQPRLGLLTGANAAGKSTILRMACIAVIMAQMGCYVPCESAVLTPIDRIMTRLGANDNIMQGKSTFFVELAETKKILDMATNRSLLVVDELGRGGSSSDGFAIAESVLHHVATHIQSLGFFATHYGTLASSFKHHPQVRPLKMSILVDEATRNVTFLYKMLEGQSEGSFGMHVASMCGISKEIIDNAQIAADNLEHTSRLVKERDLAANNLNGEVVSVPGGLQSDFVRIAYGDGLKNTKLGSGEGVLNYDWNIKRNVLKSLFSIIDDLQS
Test: BLI
Settings: BLI: 25 mM Tris-HCl pH 7.5, 1 mM EDTA, 100 mM NaCl, 0.1 mg/mL BSA, 1 mM DTT, 0.05% Tween-20; DNA 7.5 nM (30 nM for Msh2-Msh6); temperature not stated; no …
Would you kindly list pKd for each of these sequences?
pKd field: float, defined as -log10 of concentration (mol/L).

Form field pKd, entry CACGCTACCGAATTCTGACTTGCTAGGTGTGTGTGACATCTTTGCCCACGTTGACCC / GGGTCAACGTGGGCAAAGATGTCCTAGCAAGTCAGAATTCGGTAGCGTG [+8 loop, (GT)4 (LS8/LS2-Bio)] : 9.06

Short answer for CACGCTACCGAATTCTGACTTGCTAGGCATCTTTGCCCACGTTGACCC / GGGTCAACGTGGGCAAAGATGTCCTAGCAAGTCAGAATTCGGTAGCGTG [Homoduplex (LS1/LS2-Bio)] : pKd was 8.15

// field: pKd; key: CACGCTACCGAATTCTGACTTGCTAGCTGCTGCTGCTGCTGCTGCTGCTGCTGCTGGACATCTTTGCCCACGTTGACCC / GGGTCAACGTGGGCAAAGATGTCCTAGCAAGTCAGAATTCGGTAGCGTG [(CTG)10 (LS-CTG/LS2-Bio)] ; value = 8.98

Input CACGCTACCGAATTCTGACTTGCTAGCAGCAGCAGCAGCAGCAGCAGCAGCAGCAGGACATCTTTGCCCACGTTGACCC / GGGTCAACGTGGGCAAAGATGTCCTAGCAAGTCAGAATTCGGTAGCGTG [(CAG)10 (LS-CAG/LS2-Bio)] . Output pKd: 8.63
